System: mice
protocol: Determination of the 50% lethal dose (LD50) in mice
assay context: mice, IP
Listing: FIDUCIAL LIMITS of LD50, CALCULATION ACCORDING TO LITCHFIELD and WILCOXON of selected molecules
measurement kind: FIDUCIAL LIMITS of LD50, CALCULATION ACCORDING TO LITCHFIELD and WILCOXON

{"columns": ["molecule", "measured"],
 "data": [
  ["Fc1ccc(OCCCN2CCN(CCC=C(c3ccccc3)c3ccccc3)CC2)cc1", "206 to 296 mg/kg"],
  ["Fc1ccc(OCCN2CCN(CCC=C(c3ccccc3)c3ccccc3)CC2)cc1", "195 to 274 mg/kg"],
  ["Fc1ccc(OCCCCN2CCN(CCC=C(c3ccccc3)c3ccccc3)CC2)cc1", "172 to 229 mg/kg"],
  ["Cc1ccccc1OC(CCN1CCN(CCC=C(c2ccccc2)c2ccccc2)CC1)c1ccccc1 (centres unmarked)", "279 to 453 mg/kg"],
  ["Fc1ccc(OC(CCN2CCN(CCC=C(c3ccccc3)c3ccccc3)CC2)c2ccccc2)cc1 (centres unmarked)", "234 to 421 mg/kg"]
]}

###

Reported LD50 values for a set of molecules
protocol: in vivo
assay context: mouse, in vivo, ip
measurement kind: LD50

{"columns": ["molecule", "measured"],
 "data": [
  ["Cc1ccccc1OC(CCN1CCN(CCC=C(c2ccccc2)c2ccccc2)CC1)c1ccccc1 (centres unmarked) [Compound 4]", "386 mg/kg"],
  ["Fc1ccc(OCCCCN2CCN(CCC=C(c3ccccc3)c3ccccc3)CC2)cc1 [Compound 8]", "199 mg/kg"],
  ["Fc1ccc(OCCN2CCN(CCC=C(c3ccccc3)c3ccccc3)CC2)cc1 [Compound 1]", "231 mg/kg"],
  ["Fc1ccc(OC(CCN2CCN(CCC=C(c3ccccc3)c3ccccc3)CC2)c2ccccc2)cc1 (centres unmarked) [Compound 5]", "314 mg/kg"],
  ["Fc1ccc(OCCCN2CCN(CCC=C(c3ccccc3)c3ccccc3)CC2)cc1 [Compound 6]", "247 mg/kg"]
]}
